organism: Rattus norvegicus; assay: DrugMatrix - Regimen: Daily Repeat; assay type: toxicity, organism-based, Sprague-Dawley; design: regimen Daily Repeat, gender Male, age 6-8 weeks; details: in vivo, po, 50 mg/kg, 120 h, tissue Blood, route oral GAVAGE, dose level Low, time 5 day, vehicle .5 % CMC
quantity.measured: MEAN CORPUSCULAR HEMOGLOBIN CONCENTRATION (G/DL)
Numbers only, in G/DL.

Cc1cccc(C)c1OCC(C)N (centres undefined) [MEXILETINE] :: 38
NC1CCN(c2nc3c(cc2F)c(=O)c(C(=O)O)cn3-c2ccc(F)cc2F)C1 (centres undefined) [TOSUFLOXACIN] :: 37.13
CN(C)[C@@H]1C(O)=C(C(N)=O)C(=O)[C@@]2(O)C(O)=C3C(=O)c4c(O)ccc(Cl)c4[C@@](C)(O)[C@H]3C[C@@H]12 [CHLORTETRACYCLINE] :: 40.4

// moving on: another record for MEAN CORPUSCULAR HEMOGLOBIN CONCENTRATION
query: Give its MEAN CORPUSCULAR HEMOGLOBIN CONCENTRATION value. Item: CCN1CCC[C@H]1CNC(=O)c1cc(S(N)(=O)=O)ccc1OC [LEVOSULPIRIDE]
result: 39.13

====

Consider the following compounds; for each one, report its PLATELET COUNT.
species on record: Rattus norvegicus; assay: DrugMatrix - Regimen: Daily Repeat; type: toxicity, organism-based, Sprague-Dawley; design: regimen Daily Repeat, gender Male, age 6-8 weeks; conditions: in vivo, po, 0 mg/kg, 120 h, tissue Blood, route oral GAVAGE, dose level Control, time 5 day, vehicle .5 % CMC
One number for each entry, in x10E3/uL.

Here's what some known entries look like.
NC1CCN(c2nc3c(cc2F)c(=O)c(C(=O)O)cn3-c2ccc(F)cc2F)C1 (centres undefined) [TOSUFLOXACIN] :: 1155.8
COc1cc2nc(N3CCN(C(=O)c4ccco4)CC3)nc(N)c2cc1OC [PRAZOSIN] :: 1196
COC1=C(OC)C(=O)C(CCCCCCCCCCO)=C(C)C1=O [IDEBENONE] :: 1097.5
Clc1ccccc1CN1CCc2sccc2C1 [TICLOPIDINE] :: 1053.67
Cn1c(=O)c2c(ncn2CC(O)CO)n(C)c1=O (centres undefined) [DYPHYLLINE] :: 1229
CC(=O)Oc1ccc(C(c2ccc(OC(C)=O)cc2)c2ccccn2)cc1 [BISACODYL] :: 1182.33

Give PLATELET COUNT for all compounds that follow.
1. NCCCC(O)(P(=O)(O)O)P(=O)(O)O [ALENDRONIC ACID]
2. CC(C(=O)O)c1ccc2oc(-c3ccc(Cl)cc3)nc2c1 (centres undefined) [BENOXAPROFEN]
3. O=C1CN=C(c2ccccc2Cl)c2cc([N+](=O)[O-])ccc2N1 [CLONAZEPAM]

result:
1053.67
1062.2
1097.5

====

organism: Rattus norvegicus; assay: DrugMatrix - Regimen: Daily Repeat; assay type: toxicity, organism-based, Sprague-Dawley; design: regimen Daily Repeat, gender Male, age 6-8 weeks; details: in vivo, po, 1500 mg/kg, 72 h, tissue Plasma, route oral GAVAGE, dose level High, time 3 day, vehicle .5 % CMC
quantity.measured: CARBON DIOXIDE
For clarity, give the value followed by its unit.

# batch size: 2; output CARBON DIOXIDE per entry
1. CC(C)=CCC/C(C)=C/CO
2. CN(C)[C@@H]1C(O)=C(C(N)=O)C(=O)[C@@]2(O)C(O)=C3C(=O)c4c(O)ccc(Cl)c4[C@@](C)(O)[C@H]3C[C@@H]12

result:
1: 29 mmol/L; 2: 25 mmol/L

====

species: Rattus norvegicus; assay: DrugMatrix - Regimen: Daily Repeat; format: toxicity, organism-based, Sprague-Dawley; design: regimen Daily Repeat, gender Male, age 6-8 weeks; conditions: in vivo, po, 50 mg/kg, 120 h, tissue Plasma, route oral GAVAGE, dose level Low, time 5 day, vehicle .5 % CMC
quantity.measured: ASPARTATE AMINOTRANSFERASE (u/L)
One number for each entry, in u/L.

Completed entries (count: 3):
NC1CCN(c2nc3c(cc2F)c(=O)c(C(=O)O)cn3-c2ccc(F)cc2F)C1 (centres undefined) :: 56.33
CN(C)[C@@H]1C(O)=C(C(N)=O)C(=O)[C@@]2(O)C(O)=C3C(=O)c4c(O)ccc(Cl)c4[C@@](C)(O)[C@H]3C[C@@H]12 :: 84
CCN1CCC[C@H]1CNC(=O)c1cc(S(N)(=O)=O)ccc1OC [LEVOSULPIRIDE] :: 62.33

query: Please report the recorded ASPARTATE AMINOTRANSFERASE for Cc1cccc(C)c1OCC(C)N (centres undefined) .
result: 89

====

species on record: Rattus norvegicus; assay: DrugMatrix - Regimen: Daily Repeat; format: toxicity, organism-based, Sprague-Dawley; parameters: regimen Daily Repeat, gender Male, age 6-8 weeks; details: in vivo, po, 0 mg/kg, 120 h, tissue Blood, route oral GAVAGE, dose level Control, time 5 day, […]
Kindly supply the reported MEAN CORPUSCULAR VOLUME values for the records listed here.
One number for each entry, in fL.

# count of solved cases: 3
Clc1ccc(COC(Cn2ccnc2)c2ccc(Cl)cc2Cl)cc1 (centres undefined) [ECONAZOLE] :: 61.33
CC(C)(C)NC(=O)[C@H]1CC[C@H]2[C@@H]3CC[C@H]4NC(=O)C=C[C@]4(C)[C@H]3CC[C@]12C [FINASTERIDE] :: 63.93
COc1cc(N)c(Cl)cc1C(=O)NC1CCN(CCCOc2ccc(F)cc2)CC1OC (centres undefined) [CISAPRIDE] :: 61.03

Then there is this molecule:
query: For CO[C@H]1/C=C/O[C@@]2(C)Oc3c(C)c(O)c4c(O)c(c(/C=N/N5CCN(C6CCCC6)CC5)c(O)c4c3C2=O)NC(=O)/C(C)=C\C=C\[C@H](C)[C@H](O)[C@@H](C)[C@@H](O)[C@@H](C)[C@H](OC(C)=O)[C@@H]1C [RIFAPENTINE] , what is its reported MEAN CORPUSCULAR VOLUME?
result: 62.27

====

species on record: Rattus norvegicus; assay: DrugMatrix - Regimen: Daily Repeat; type: toxicity, organism-based, Sprague-Dawley; design: regimen Daily Repeat, gender Male, age 6-8 weeks; conditions: in vivo, po, 1500 mg/kg, 120 h, tissue Plasma, route oral GAVAGE, dose level High, time 5 day, vehicle .5 % CMC
I would appreciate it if you labelled entries Criterion met when CARBON DIOXIDE is 30 mmol/L or higher, otherwise Criterion not met.

Check out these entries, answers already filled in.
CC(C)Oc1ccc2c(=O)c(-c3ccccc3)coc2c1 [IPRIFLAVONE] :: Criterion not met
O=c1cnn([C@@H]2O[C@H](CO)[C@@H](O)[C@H]2O)c(=O)[nH]1 [6-AZAURIDINE] :: Criterion met
COC(=O)Nc1nc2ccc([S+]([O-])c3ccccc3)cc2[nH]1 (stereo not given) [OXFENDAZOLE] :: Criterion not met
CN(C)[C@@H]1C(O)=C(C(N)=O)C(=O)[C@@]2(O)C(O)=C3C(=O)c4c(O)ccc(Cl)c4[C@@](C)(O)[C@H]3C[C@@H]12 [CHLORTETRACYCLINE] :: Criterion not met

Attention now turns to another entry.
query: Record CC(C)=CCC/C(C)=C/CO [GERANIOL] ; criterion: CARBON DIOXIDE no lower than 30 mmol/L. Met?
result: Criterion met

====

species: Rattus norvegicus; assay: DrugMatrix - Regimen: Daily Repeat; format: toxicity, organism-based, Sprague-Dawley; parameters: regimen Daily Repeat, gender Male, age 6-8 weeks; conditions: in vivo, po, 2000 mg/kg, 72 h, tissue Plasma, route oral GAVAGE, dose level High, time 3 day, vehicle .5 % CMC
quantity.measured: GLUCOSE (mg/dL)
Give bare numbers, in mg/dL.

COc1cc2nc(N3CCN(C(=O)c4ccco4)CC3)nc(N)c2cc1OC [PRAZOSIN] :: 153
NC1CCN(c2nc3c(cc2F)c(=O)c(C(=O)O)cn3-c2ccc(F)cc2F)C1 (stereo unspecified) [TOSUFLOXACIN] :: 175
O=C1Nc2ccc(Cl)cc2C(c2ccccc2Cl)=NC1O (stereo unspecified) [LORAZEPAM] :: 161.67

# per-item lookup of GLUCOSE; items listed below
1. CN/C(=N/CCSCc1nc[nH]c1C)NC#N [CIMETIDINE]
2. CC1(C)S[C@@H]2[C@H](NC(=O)[C@H](N)c3ccccc3)C(=O)N2[C@H]1C(=O)O [AMPICILLIN]

result:
1. 145.67
2. 140

query: Dear colleague, I am looking for the recorded GLUCOSE of the following compound: CN(C/C=C/C#CC(C)(C)C)Cc1cccc2ccccc12 [TERBINAFINE]
result: 140.67
